Read-out: MYC, MYC (gene 4609)
Experiment: LTEA_HepaRG_MYC: Life Technologies and Expression Analysis (LTEA) Assay for MYC using HepaRG (AID 2283518)
Conditions: mRNA level, 48 h; actives raise or lower the signal
Activity calls are given as the source filed them. Rule for the calls: active = hit-call score of the fitted dose curve at least 0.9, where 1 is the maximum; inactive = score below 0.9.
API: response.call in active, inactive

Compound	Class
O=C(OCCOCCOC(=O)c1ccccc1)c1ccccc1	inactive
C[C@@H]1C[C@H]2[C@@H]3CCC4=CC(=O)C=C[C@]4(C)[C@@]3(F)[C@@H](O)C[C@]2(C)[C@@]1(O)C(=O)COP(=O)(O)O	inactive
CCCCCCCCOC(=O)CCCCCCCCC(=O)OCCCCCCCC	inactive
ClC1=C(Cl)C(Cl)(Cl)C(Cl)=C1Cl	inactive
Cc1cc(C)c(O)c(C)c1	inactive
CCCCCCCCCCCCCCCS(=O)(=O)Oc1ccccc1	inactive
CCCCCCCC(=O)O	inactive
O=C(O)Cc1cc(I)c(Oc2cc(I)c(O)c(I)c2)c(I)c1	active

-- ask Hello, I am checking results. What call was entered for NC(=O)N1C(=O)C(C(=O)c2cc(Cl)cs2)c2cc(F)c(Cl)cc21 (centres undefined) ?
-- reply active

-- ask Follow-up item: COCC(C)OCC(C)O (centres undefined)
-- reply inactive

-- ask Follow-up item: `NC(=O)N(O)[C@@H]1C=C[C@H](Oc2cccc(Oc3ccc(F)cc3)c2)C1`
-- reply active

-- ask Follow-up item: `c1ccc2cc3c(ccc4ccccc43)cc2c1`
-- reply active

-- ask Follow-up item: `CCCCCCCCCCCCN1CCCC1=O`
-- reply inactive

-- ask Follow-up item: `C=C(C)C(=O)OCCC(F)(F)C(F)(F)C(F)(F)C(F)(F)C(F)(F)C(F)(F)F`
-- reply inactive

====

Assay: CEETOX_H295R_OHPROG: CeeTox H295R High-throughput Steroidogenesis Assay for OH-Progesterone (OHPROG) (AID 2283435);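 for AC50: human adrenal H295R cells primed 48 h with 10 µM forskolin; 17alpha-hydroxyprogesterone secreted into medium measured by HPLC-MS/MS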
Conditions: actives raise or lower the signal
Active and inactive are the calls of the source. The calls were made as follows: active = hit-call score of the fitted dose curve at least 0.9, where 1 is the maximum; inactive = score below 0.9.
Quantity: AC50

Oc1cccc(O)c1 inactive
CCCCCCCCC(=O)O inactive
CCCOC(=O)c1ccc(O)cc1 7.73 µM (active)
CC1=C(/C=C/C(C)=C/C=C/C(C)=C/C(=O)O)C(C)(C)CCC1 inactive

====

Target: Estrogen receptor (Homo sapiens) (UniProt P03372)
Sequence (P03372 whole entry, looked up): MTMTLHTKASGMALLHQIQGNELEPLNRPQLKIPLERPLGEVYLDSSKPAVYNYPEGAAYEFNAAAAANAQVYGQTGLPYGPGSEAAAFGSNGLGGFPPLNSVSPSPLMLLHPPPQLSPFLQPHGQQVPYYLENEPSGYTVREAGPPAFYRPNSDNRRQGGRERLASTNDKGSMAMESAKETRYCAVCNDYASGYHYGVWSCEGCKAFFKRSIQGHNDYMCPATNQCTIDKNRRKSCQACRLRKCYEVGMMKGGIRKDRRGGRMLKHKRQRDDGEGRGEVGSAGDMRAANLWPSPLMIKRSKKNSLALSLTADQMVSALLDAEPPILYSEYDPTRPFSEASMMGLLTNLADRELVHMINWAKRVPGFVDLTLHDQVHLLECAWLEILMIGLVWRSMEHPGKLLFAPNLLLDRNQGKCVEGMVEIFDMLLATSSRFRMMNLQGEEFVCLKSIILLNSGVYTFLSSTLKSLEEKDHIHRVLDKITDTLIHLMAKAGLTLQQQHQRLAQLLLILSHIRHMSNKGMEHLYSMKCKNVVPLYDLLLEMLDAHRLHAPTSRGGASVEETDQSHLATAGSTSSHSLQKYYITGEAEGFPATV
Assay: OT_ERa_GFPERaERE_0120: Odyssey Thera (OT) 2-hour HeLa Transcription Induction Assay for Estrogen Receptor (AID 2283382)
Description: OT_ERa_GFPERaERE_0120 is a cell-based, single-readout assay that uses HeLa, a human cervix cell line, with measurements taken at 2 hours after chemical dosing in a 384-well plate.OT_ERa_GFPERaERE_0120 is one of one assay component(s) measured or calculated from the OT_ERa_GFPERaERE_0120 assay. […] This assay endpoint, OT_ERa_EREGFP_0120, was analyzed in the positive analysis fitting direction relative to DMSO as the negative control and baseline of activity. […]
The source made the active and inactive calls. Rule for the calls: active = hit-call score of the fitted dose curve at least 0.9, where 1 is the maximum; inconclusive = response in the unintended direction; inactive = score below 0.9.
API: response.call in true for active, false for inactive

Here are 4 molecules together with their reported answers.
Molecule	Class
C=C(C)C(=O)OCCC(F)(F)C(F)(F)C(F)(F)C(F)(F)C(F)(F)C(F)(F)F	true
CCCCCCCCC(=O)O	false
OCCC(F)(F)C(F)(F)C(F)(F)C(F)(F)C(F)(F)C(F)(F)C(F)(F)C(F)(F)F	true
NC(=O)N1C(=O)C(C(=O)c2cc(Cl)cs2)c2cc(F)c(Cl)cc21 (stereo not drawn)	false

-- ask Hello, I am checking results. What call was entered for CCCCC(CC)COC(=O)CCCCC(=O)OCC(CC)CCCC (stereo not drawn) ?
-- reply false

-- ask Follow-up item: `COc1ccc([N+](=O)[O-])cc1N`
-- reply false

-- ask Follow-up item: `CCCCCCC(=O)O`
-- reply false

-- ask Follow-up item: `Cc1cc(C)c(O)c(C)c1`
-- reply false

-- ask Follow-up item: `CC1=C(/C=C/C(C)=C/C=C/C(C)=C/C(=O)O)C(C)(C)CCC1`
-- reply false

-- ask Follow-up item: `c1ccc2c(c1)ccc1ccccc12`
-- reply false

-- ask Follow-up item: `O=C(OCCOCCOC(=O)c1ccccc1)c1ccccc1`
-- reply false

-- ask Follow-up item: `CN(C)C=O`
-- reply false

-- ask Follow-up item: `CCCCCCCCOC(=O)CCCCCCCCC(=O)OCCCCCCCC`
-- reply false

-- ask Follow-up item: `C[C@@H]1C[C@H]2[C@@H]3CCC4=CC(=O)C=C[C@]4(C)[C@@]3(F)[C@@H](O)C[C@]2(C)[C@@]1(O)C(=O)COP(=O)(O)O`
-- reply false

-- ask Follow-up item: `CC(C)(C)c1cc(C(C)(C)C)c(O)c(C(C)(C)C)c1`
-- reply false

-- ask Follow-up item: `CN1CCN(c2ccccc2/C=C2\SCCN(c3ccc(Cl)c(Cl)c3)C2=O)CC1`
-- reply true

-- ask Follow-up item: COCC(C)OCC(C)O (stereo not drawn)
-- reply false

-- ask Follow-up item: `CCN(CC)CCNc1ccc(CNC=O)c2sc3ccc(OC)cc3c(=O)c12`
-- reply true

-- ask Follow-up item: `CCCOC(=O)c1ccc(O)cc1`
-- reply false

-- ask Follow-up item: `CC(C)(C)c1cccc(C(C)(C)C)c1O`
-- reply false

-- ask Follow-up item: `COC(=O)CCCCC(=O)OC`
-- reply false

====

Read-out: Macrophage colony-stimulating factor (MCSF), CSF1 (gene 1435)
Test: BSK_hDFCGF_MCSF: BioMAP Diversity Plus: hDFCGF Assay for Macrophage colony-stimulating factor (MCSF) Biomarker Activity (AID 2283060)
Details: primary human foreskin fibroblasts; actives raise or lower the signal
Description: BSK_hDFCGF is a cell-based, multiplexed-readout assay that uses foreskin fibroblast, a human skin primary cell, with measurements taken at 24 hours after chemical dosing in a 96-well plate.BSK_hDFCGF_MCSF is an assay component measured in the BSK_hDFCGF assay. It measures M-CSF antibody related to regulation of gene expression using ELISA technology.Data from the assay component BSK_hDFCGF_MCSF was analyzed into 1 assay endpoint. […]
Active and inactive are the calls of the source. Rule for the calls: active = hit-call score of the fitted dose curve at least 0.9, where 1 is the maximum; inactive = score below 0.9.
Quantity: AC50

Molecule	Quantity	Observed Measurement
CCCCC(CC)COC(=O)CCCCC(=O)OCc1ccccc1 (centres undefined)	AC50	inactive
CC1=C(/C=C/C(C)=C/C=C/C(C)=C/C(=O)O)C(C)(C)CCC1	AC50	25.2 µM (active)
NC(=O)N1C(=O)C(C(=O)c2cc(Cl)cs2)c2cc(F)c(Cl)cc21 (centres undefined)	AC50	2.1 µM (active)
CCCCCCCC(=O)O	AC50	inactive

====

Read-out: CYP4A11 (gene 1579)
Assay: LTEA_HepaRG_CYP4A11: Life Technologies and Expression Analysis (LTEA) Assay for CYP4A11 using HepaRG (AID 2283486)
Details: mRNA level, 48 h; actives raise or lower the signal
Calls of active or inactive are those of the source. How the source made its calls: active means hit-call score of the fitted dose curve at least 0.9, where 1 is the maximum; inactive means score below 0.9.
API: response.call in y for active, n for inactive

Here are 3 compounds together with their reported answers.
Compound	Class
Oc1cc2ccccc2c2ccccc12	n
ClC1=C(Cl)C(Cl)(Cl)C(Cl)=C1Cl	n
OC1CCC(C2CCCCC2)CC1 (stereo not given)	n

-- ask Hello, I am checking results. What call was entered for `CC1=C(/C=C/C(C)=C/C=C/C(C)=C/C(=O)O)C(C)(C)CCC1` ?
-- reply y

-- ask Follow-up item: `CC(C)(C)CC(C)(C)c1ccc(O)c(-n2nc3ccccc3n2)c1`
-- reply y

-- ask Follow-up item: `CCCCCCCCC(=O)O`
-- reply n

-- ask Follow-up item: `OC1CCCCC1`
-- reply n

-- ask Follow-up item: `CCC(=C(c1ccc(O)cc1)c1ccc(OCCN(C)C)cc1)c1ccccc1`
-- reply y

-- ask Follow-up item: `C=C(C)C(=O)OCCC(F)(F)C(F)(F)C(F)(F)C(F)(F)C(F)(F)C(F)(F)F`
-- reply n

-- ask Follow-up item: `CCCCCCCCOC(=O)CCCCCCCCC(=O)OCCCCCCCC`
-- reply n

====

Assay: CCTE_Shafer_MEA_acute_per_network_burst_spike_number_std: CCTE's Neural Acute Assay for Standard Deviation of Number of Spikes in a Network Burst, Shafer Lab (AID 2284020);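 note: fitted for decrease in spike-number SD versus DMSO so actives lower it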
Activity calls are given as the source filed them. The calls were made as follows: active = hit-call score of the fitted dose curve at least 0.9, where 1 is the maximum; inactive = score below 0.9.
API: response.call in Yes (active), No (inactive)

Compound	Class
CCc1ccc(CCOc2ccc(CC3SC(=O)NC3=O)cc2)nc1 (stereo unspecified)	No
O=C(O)c1ccccc1C(c1ccc(O)cc1)c1ccc(O)cc1	No
NC(=O)N(O)[C@@H]1C=C[C@H](Oc2cccc(Oc3ccc(F)cc3)c2)C1	Yes

-- ask Hello, I am checking results. What call was entered for `CC[C@H](c1ccc(O)cc1)[C@@H](CC)c1ccc(O)cc1` ?
-- reply No

-- ask Follow-up item: `CCCCCCCCCCCCc1ccccc1S(=O)(=O)O`
-- reply No

-- ask Follow-up item: `Cc1cc(CCN2CCN(c3nsc4ccccc34)CC2)cc2c1NC(=O)CC2(C)C`
-- reply Yes
